System: HCT-116
Test: NCI tumour cell line growth inhibition, 48 h
Active and inactive are the calls of the source. Cut-off read from the data, not from the text of the source: active = GI50 up to about 1.1 µM and inactive = higher. Where a SMILES comes first, the peptide text is derived from it. [ ]: non-standard residue; d: D form. Phe(F5) = N[CH](Cc1c(F)c(F)c(F)c(F)c1F)C(=O)O
experimental-readout: GI50

{"columns": ["compound", "recorded-value"],
 "data": [
  ["CCC(Oc1ccc(OC)c2ccccc(=O)c12)C(=O)O (stereo unspecified)", "> 100 µM (inactive)"],
  ["CN(C)C(=O)C(F)(F)C(c1ccc(Br)cc1)C1C(=O)N(C)C(=O)N(C)C1=O (stereo unspecified)", "> 100 µM (inactive)"],
  ["COC(=O)C(=O)C(C(=O)OC)C(=O)C(=O)Nc1c(C)cccc1C (stereo unspecified)", "> 100 µM (inactive)"],
  ["C=CCCCn1ccc2ccccc21", "> 100 µM (inactive)"],
  ["CCOP(=O)(OCC)OC1CC(n2cc(C)c(=O)n(C)c2=O)OC1CO[Si](C)(C)C(C)(C)C (stereo unspecified)", "40.8 µM (inactive)"],
  ["C=C1CCCCCCCCC/C=C/1SCCCSC", "> 100 µM (inactive)"],
  ["CCOC(=N)CC(=O)c1ccccc1", "> 100 µM (inactive)"],
  ["CCc1n[nH]c(=O)n1-c1ccncc1", "> 100 µM (inactive)"],
  ["COc1ccc(-n2cnc3c(NCC(=O)O)ncnc32)cc1", "> 100 µM (inactive)"],
  ["NCCCCC(=O)c1cccnc1", "> 100 µM (inactive)"],
  ["CC(=O)N1NC(c2ccccc2)=NC(=O)C1c1cc(C)c(O)c(C)c1 (stereo unspecified)", "21.2 µM (inactive)"],
  ["CN(C)c1nc(N(C)C)nc(N(C)C23CC4CC(CC(C4)C2)C3)n1", "20.5 µM (inactive)"],
  ["COC(=O)C(CC(C)C)NC(=O)C(Cc1c[nH]cn1)NC(=O)CNC(=O)C(NC(=O)C(C)NC(=O)C(Cc1c[nH]c2ccccc12)NC(=O)C(CCC(=O)O)NC(=O)C(N)Cc1c(F)c(F)c(F)c(F)c1F)C(C)C (stereo unspecified) (H-[Phe(F5)]EWAVGHL-OMe; configuration not given here)", "> 12.5 µM (inactive)"],
  ["O=C(O)c1cc(/C=C/c2ccc(O)c(O)c2)ccc1O", "40 µM (inactive)"],
  ["O=C(/C=C(O)/C(=C/C(=O)c1ccccc1)NN=C(c1ccccc1)c1ccccc1)c1ccccc1", "28.1 µM (inactive)"],
  ["Brc1ccc(C2CC3(c4ccccc4)ON=C(c4ccccc4)N3c3ccccc3S2)cc1 (stereo unspecified)", "5.87 µM (inactive)"],
  ["CC1=NN(c2nc(N)nc(/C(C#N)=C/c3ccccc3O)n2)C(C)(C)C1", "18.3 µM (inactive)"],
  ["COc1cc(NS(C)(=O)=O)ccc1Nc1ccnc2ccc3[nH]ccc3c12", "12.2 µM (inactive)"],
  ["CC(C)(O)C1OCC(C2CCC3(C)C4=CCC5C(C)(C)C(O)CCC5(C)C4CCC23C)CC1O (stereo unspecified)", "14.5 µM (inactive)"],
  ["CN1CCOC1(C)c1ccccc1 (stereo unspecified)", "> 100 µM (inactive)"],
  ["CC1(C)SC2C(NC(=O)C(C(=O)O)c3ccccc3)C(=O)N2C1C(=O)O (stereo unspecified)", "> 100 µM (inactive)"]
]}
